# METHOD_NOTES: yeast display, Sf9 membrane polyspecificity reagent, FACS + sequencing; frameworks hold sequencing errors

>  <SEQUENCE_TEXT>
QVQLVESGGGLVQAGGSLRLTCAASGFIFSKYAMGSYRQAPGKERELVAAISTSGASTYYADSVKGRFTISRDNAKNTVYLQMNSLKPEDTAVYYCNVPRYSPIRNYDYWGQGTQVTVSS

>  <polyreactivity (PSR sort gate)>
high polyreactivity

$$$$
>  <SEQUENCE_TEXT>
QVQLVESGGGLVQAGGSLRLICAASGRTFRYYTMGWYRQAPGKEREFVAAISSTGGTYYADSVKGRFTNSRDNAKNTVYFQMNSLKPEDTAVYYWAAYRWGILSAYYYAWYGYWGQGTQVTVSS

>  <polyreactivity (PSR sort gate)>
low polyreactivity

$$$$
>  <SEQUENCE_TEXT>
QVQLVESGGGLVQAGGSLRLSCAASGLIFPLYAMGWYRQAPGKERELVAAISRTGVSTDYADSVKGRFTISRDNAKNTVYLQMNSLKPEDTAVYYCNKVRTPRRRYDYWGQGTQVTVSS

>  <polyreactivity (PSR sort gate)>
low polyreactivity

$$$$
>  <SEQUENCE_TEXT>
QVQLVESGGGLVQAGGSLRLSCAASGRTFVPYAMGRYRQAPGKERELVAAISARGSSTYYADSVKGRFTISRDNAKNTVYLQMNSLKPEDTAVYYCNAVGARVASATGMEYWGQGTQVTVSS

>  <polyreactivity (PSR sort gate)>
high polyreactivity

$$$$
>  <SEQUENCE_TEXT>
QVQLVESGGGLVQAGGSLRLSCAASGIIFYYNAMGWYRQAPGKERELVAAINDSGNTYYADSVKGRFTISRDNAKNTVYFQMNSLKPEDTAVYYCAADVWKYWGYDYWGQGTQVTVSS

>  <polyreactivity (PSR sort gate)>
low polyreactivity

$$$$
>  <SEQUENCE_TEXT>
QVQLVESGGGLVQAGGSLRLSCAASGRTFRSYAMGWYRQAPGKERELVAAISSGTSTDYADSVKGRFTISRDNAKNTVYLQMNSLKPEDTAVYYCAYDYWGQGTQVTVSS

>  <polyreactivity (PSR sort gate)>
low polyreactivity

$$$$
>  <SEQUENCE_TEXT>
QLQLVESGGGLVQAGASLRLSCAASGSILWPSARGWYRQAPGKERELVAAISTGGSTYYADSVKGRFTISRDNAKNTVYLQMNSLKPEDTAVYYCAAYVDYSVYFGGGYWGQGTQVTVSS

>  <polyreactivity (PSR sort gate)>
low polyreactivity

$$$$
>  <SEQUENCE_TEXT>
QVQLVESGGGLVQAGGSLRLSCAASGLIFTTYAMGWYRQAPGKERELVAAISSSGDSTYYADSVKGRFTISRDNAKNTVYLQMNSLKPEDTAVYYCAARYYYRGYEFGYWGQGTQVTVSS

>  <polyreactivity (PSR sort gate)>
high polyreactivity

$$$$
>  <SEQUENCE_TEXT>
QVQLVESGGGLVQAGGSLRLSCAASGRTFYPYAMGWYRQAPGKERELVAAISYRGGSTYYADSVKGRFTISRDNAKNTVYLQMNSLKPEDTAVYYCAKRGYASGSKWDYGYWGQGTQVTVSS

>  <polyreactivity (PSR sort gate)>
high polyreactivity

$$$$
>  <SEQUENCE_TEXT>
QVQLVESGGGLVQAGGSLRLSCAASGLTFGDNAMGWYRQAPGKERELVAAITTSGPSTYYADSVKGRFTISRDNAKNTVYLQMNSLKPEDTAVYYCAADGLFYWVQYGYWGQGTQVTVSS

>  <polyreactivity (PSR sort gate)>
low polyreactivity

$$$$
>  <SEQUENCE_TEXT>
QVQLVESGGGLVQAGGSLRLSCAATGHTFHGYAMGWYRPAPGKERELVAAITSTGGSTHYADSVKGRFTISRDNAKNTVYLQMNSLKPEDTAVYYCAKRSYGLTRAYSAGNYWGQGTQVTVSS

>  <polyreactivity (PSR sort gate)>
low polyreactivity

$$$$
